TARGET SYSTEM: human plasmin (Homo sapiens)
Sequence (P00747 581-810 limits assumed): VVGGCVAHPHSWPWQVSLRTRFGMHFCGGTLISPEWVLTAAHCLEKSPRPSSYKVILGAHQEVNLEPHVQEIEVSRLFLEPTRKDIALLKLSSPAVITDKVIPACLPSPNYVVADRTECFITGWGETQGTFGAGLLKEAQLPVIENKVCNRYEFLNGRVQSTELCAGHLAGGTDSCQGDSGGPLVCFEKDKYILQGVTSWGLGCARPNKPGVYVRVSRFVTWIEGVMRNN
Sequence (P00747 97-580 partner limits assumed): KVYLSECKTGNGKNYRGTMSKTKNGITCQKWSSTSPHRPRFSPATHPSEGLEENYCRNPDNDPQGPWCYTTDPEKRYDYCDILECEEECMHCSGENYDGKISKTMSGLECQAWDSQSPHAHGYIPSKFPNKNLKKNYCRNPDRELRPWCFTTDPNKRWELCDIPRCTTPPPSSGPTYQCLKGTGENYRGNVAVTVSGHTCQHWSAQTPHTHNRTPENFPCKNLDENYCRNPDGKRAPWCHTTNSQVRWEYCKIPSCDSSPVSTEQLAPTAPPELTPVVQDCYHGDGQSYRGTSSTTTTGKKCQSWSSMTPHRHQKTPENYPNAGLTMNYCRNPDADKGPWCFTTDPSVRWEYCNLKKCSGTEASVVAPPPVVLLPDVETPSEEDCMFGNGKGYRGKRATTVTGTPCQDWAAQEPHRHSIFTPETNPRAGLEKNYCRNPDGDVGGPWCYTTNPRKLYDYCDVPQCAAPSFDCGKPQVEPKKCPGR
ASSAY REMARKS: Antiplasmin activity: inhibition of fibrin decomposition
Assay type: biochemical
SETTINGS: Table 2; concentration at which fibrin dissolution time is extended twice, pH 7.4, 37° C.; read-out: Plasmin Fibrin (I50)
Structures can show the parent of a compound that is named as a salt.
READOUT TYPE: IC50
Please make sure the unit comes right after the number.

Asked: Look at this molecule and give its reported IC50. NC[C@H]1CC[C@H](C(=O)N[C@@H](Cc2ccc(OCc3cccc(Cl)c3)cc2)C(=O)Nc2ccnc(Cl)c2)CC1 [compound 128]
Given back: 300 nM

Asked: What about NCC1CCC(C(=O)NC(Cc2ccc(OCc3ccccc3)cc2)C(=O)NCc2ccc(F)cc2)CC1 (centres unmarked) [compound 111] ?
Given back: 1100 nM

Asked: Same for NC[C@H]1CC[C@H](C(=O)N[C@@H](Cc2ccc(OCc3cccc(Cl)c3)cc2)C(=O)Nc2ccc(C(=O)c3ccccc3)cc2)CC1 [compound 67]
Given back: 140 nM

Asked: And then Cc1ccc(NC(=O)[C@H](Cc2ccc(OCc3ccccc3)cc2)NC(=O)[C@H]2CC[C@H](CN)CC2)cc1C [compound 58] , what is it?
Given back: 720 nM

Asked: What about CC(=O)c1ccc(NC(=O)[C@H](Cc2ccc(Oc3ccc([N+](=O)[O-])cc3)cc2)NC(=O)[C@H]2CC[C@H](CN)CC2)cc1 [Compound No. 95, hydrochloride] ?
Given back: 270 nM
